Measured Target: Proteasome Macropain subunit MB1 (Homo sapiens, UniProt P28074)
Sequence (P28074 whole entry): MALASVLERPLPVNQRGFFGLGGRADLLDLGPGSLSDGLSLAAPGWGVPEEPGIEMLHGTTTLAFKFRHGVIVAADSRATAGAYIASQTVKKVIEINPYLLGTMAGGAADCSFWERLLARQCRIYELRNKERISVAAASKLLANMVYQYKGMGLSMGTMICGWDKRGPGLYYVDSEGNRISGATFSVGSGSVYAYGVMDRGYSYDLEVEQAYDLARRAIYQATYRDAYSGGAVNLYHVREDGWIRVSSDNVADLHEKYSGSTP
Assay Comment: Inhibition of chymotrypsin-like activity of proteasome in intact LnCaP cells
Observed Property: IC50

Would you mind telling me what IC50 value was observed for `NC(=S)N/N=C/c1ccc2ccccc2n1` ?
≥ 10 µM

meta.source: ChEMBL document CHEMBL1137366
